Data provenance is the supplement of paper PMC11061612.

# combination Emax annotations
- Test system: NH-12 (Neuroblastoma)
- assayText: combination Emax (second highest fraction inhibited in the dose matrix, 72 h); higher = more inhibition; extreme values may be limits of the assay
readoutLabel: combination Emax

[[record]]
compound = "NC1(C(=O)N[C@@H](CCO)c2ccc(Cl)cc2)CCN(c2ncnc3[nH]ccc23)CC1 [Capivasertib] + COc1nnc2ccc(N3CCC(c4ccc(OCCN5CCN(C)C(=O)[C@H]5C)cc4)CC3)nn12 [AZD5153] (first compound max 10 µM, 7x7, partner max 1 µM)"
endpointresult = 0.634

[[record]]
compound = "Cc1c2c(nn1C)CSCc1cc(n(C)n1)CSc1cc(c3ccccc3c1)OCCCc1c(C(=O)O)n(C)c3c-2c(Cl)ccc13 [AZD5991] + Cn1cnc2c(F)c(Nc3ccc(Br)cc3Cl)c(C(=O)NOCCO)cc21 [Selumetinib] (first compound max 1 µM, 7x7, partner max 3 µM)"
endpointresult = 0.568

